target: MASP-2-CCS-Flag (human) (UniProt O00187); assay: SPR, Biacore T200, antibody captured on Protein A chip, MASP-2-CCS-Flag as analyte
Sequence (O00187 other isoform, or with tags, fused parts or gaps limits assumed, form in doubt): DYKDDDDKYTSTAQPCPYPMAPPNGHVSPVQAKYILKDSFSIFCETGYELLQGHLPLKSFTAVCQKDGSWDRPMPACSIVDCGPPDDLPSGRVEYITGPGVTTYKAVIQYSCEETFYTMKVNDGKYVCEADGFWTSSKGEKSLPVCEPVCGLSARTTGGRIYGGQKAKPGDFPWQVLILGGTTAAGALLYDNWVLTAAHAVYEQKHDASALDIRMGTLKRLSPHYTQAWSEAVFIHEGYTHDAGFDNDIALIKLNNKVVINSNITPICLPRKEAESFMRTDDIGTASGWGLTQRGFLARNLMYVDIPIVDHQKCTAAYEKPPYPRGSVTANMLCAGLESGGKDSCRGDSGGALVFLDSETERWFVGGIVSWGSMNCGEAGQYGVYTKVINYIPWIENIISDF
Listing: kon of selected binders
Give just the numeric value; M⁻¹ s⁻¹ need not be written.

The cases that follow already have their kon on record.
binder	metric.name	display.unit	assay.value
humanized anti-human MASP-2 monoclonal antibody 136-Hu (antibody, human IgG4 S228P, kappa, V domains shown) VH: QVQLVQSGAEVKKPGASVKVSCKASGNTFTNYWMHWIRQAPGQGLEWMGYINPNTGYTDFNQKFKDRVTLTADKSTSTAYMELSSLRSEDTAVYYCTLQLGRNFDYWGQGTTVTVSS VL: DIQMTQSPSSLSASVGDRVTITCRASQSVSSSRSTYIHWYQQKPGKAPKLLIYYSSNLESGVPSRFSGSGSGTDFTLTISSLQPEDFATYYCHQSWEIPYTFGQGTKLEIKR	kon	M⁻¹ s⁻¹	590000
humanized anti-human MASP-2 monoclonal antibody 124-Hu (antibody, human IgG4 S228P, kappa, V domains shown) VH: QVQLQESGPGLVKPSQTLSLTCTVSGYSITSDYAWNWIRQPPGKGLEWMGYISYSGRTSYNPSLKSRLTISRDTSKNQFSLKLSSVTAADTAVYYCARHYGDFWGQGTTVTVSS VL: DIQMTQSPSSLSASVGDRVTITCKASQNVDTNVAWYQQKPGKAPKLLIYSASYRYSGVPSRFSGSGSGTDFTLTISSLQPEDFATYYCQQYNSYPSTFGQGTKLEIKR	kon	M⁻¹ s⁻¹	1.66e+06
humanized anti-human MASP-2 monoclonal antibody 126-Hu (antibody, human IgG4 S228P, kappa, V domains shown) VH: QVQLVESGGGVVQPGRSLRLSCAASGFTFSSFGMHWVRQAPGKGLEWVAYISSGSSSSFYVDTVKGRFTISRDNSKNTLYLQMNSLRAEDTAVYYCARGDRNFEVWGQGTTVTVSS VL: DIQMTQSPSSLSASVGDRVTITCRASQSVSSSRYSYMHWFQQKPGKAPKLLIYHASNLESGVPSRFSGSGSGTDFTLTISSLQPEDFATYYCQQSWEVPWTFGQGTKLEIKR	kon	M⁻¹ s⁻¹	428000

Now, please, on to the next binder.
Name the reported kon value associated with the binder humanized anti-human MASP-2 monoclonal antibody 100-Hu (antibody, human IgG4 S228P, kappa, V domains shown) VH: QVQLVESGGGVVQPGGSLRLSCAASGFTFSNFGIHWVRQAPGKGLEWVAYISSGGSAVFYADTVKGRFTISRDNSKNTLYLQMNSLRAEDTAVYYCAKSDRYFDYWGQGTTVTVSS VL: EIVLTQSPATLSLSPGERATLSCRASQSVSSSSYRYIHWYQQKPGQAPRLLIYYASNLESGIPARFSGSGSGTDFTLTISSLEPEDFAVYYCQHSWETPWTFGQGTKLEIKR 428000
